Quick reference: fold reactivity over background of the listed items.
Target: hemagglutinin (HA) of influenza B virus B/Florida (Yamagata lineage) (influenza B virus B/Florida/06 …)
Test: recombinant HA ELISA (AttoPhos fluorescence, mean of triplicates)

{"binder": "TRL854 (antibody, V domains shown) VH: QVQLVESGAEVKKPGASVRVSCKGSGYTFTAYHMHWVRQAPGQGFEWVGWINPNSGATYYTSTFEGRVTMTRDTSITTAYMELSSLRSDDTAVYYCATDIVVERDASLGGFNSYGMDVWGQGTTVTVSS VL: DIEMTQSPLSLPVTPGEPASISCRSSQSLLHSNGYNHLAWYLQKPGRSPHLLIYLASTRASGVPDRFSGSGSGTDFTLKISRVEAEDVGIYYCMQSLQTSITFGQGTRLEIKR", "reading-unit": "fold over background", "fold reactivity over background": 25.6}
{"binder": "TRL579 (antibody, V domains shown) VH: QVQLVQSGAEVKKPGASVKVSCKTSGYTFTAYTIHWVRQAPGQRLEWMGWINAGNGHTKYSQRFKGRVTITRDTSARTTYMELRSLTSEDTALYFCARGPETYYYDKTNWLNSHPDEYFQHWGHGTQVTVSS VL: DIQMTQSPSTLSASVGDRVTITCRASQTINNYLAWYQQKPGKAPKLLIYKASSLESGVPSRFSGSGSGTEFTLTISSLQPDDFATYYCQEYNNDSPLTFGGGTKVEIKR", "reading-unit": "fold over background", "fold reactivity over background": 1}
{"binder": "TRL813 (antibody, V domains shown) VH: QVQLVESGGGLVQPGGSLRLSCAASGFIFGDFAIHWVRQASGKGLEWVARIRSGLNRFETAYAASVEGRLTISRDDSKSMAYLQMNNVKAEDTAVYLCTYLVGAVGFQHWGQGTLVTVSS VL: DIVMTQSPSTLSASVGDRVTITCRASQTIYRWLAWYQQKPGKAPKVLIYKASTLESGVPSRFSGSGSGTEFTLAISSLQPDDFATYYCQQYNSFPYRFGQGTKVEIKR", "reading-unit": "fold over background", "fold reactivity over background": 25.6}
